assay: blockers of DNA damage checkpoint Chk1 activation – imaging, HeLa, hydroxyurea, phospho-Chk1 nuclear intensity, primary screen (AID 1187); conditions: hydroxyurea-induced phospho-Chk1 immunofluorescence imaging, higher = more signal; also: test concentration not given here
RECORDED METRIC: z-score

MOLECULE | MEAS VALUE
COCC1=C([C@H](O)CCc2ccccc2)[C@H](CO)[C@@H]2C(=O)N(Cc3ccccc3)C(=O)[C@@H]2C1 | -0.946
CN1C(=O)C2C=CC(C(O)C3=C[C@H]4C[C@@H](C3)C4(C)C)N(Nc3ccc([N+](=O)[O-])cc3[N+](=O)[O-])C2C1=O (some centres undefined) | -0.257
COC(=O)[C@@]1(Cc2ccc(OC)cc2)[C@H]2c3cc(C(=O)N(C)C)n(CCSCCO)c3C[C@H]2CN1C(=O)c1ccccc1 | 0.101
COc1ccc([Si](C)(C)[C@@H]2[C@@H](CCO)O[C@]3(C(=O)N(Cc4ccc(N5C(=O)c6cccc7cccc5c67)cc4)c4ccccc43)[C@H]2C)cc1 | -0.198
O=C1OCC=C[C@H]2OC34C=CCN(CCN5CCOCC5)C(=O)[C@H]3N(CCCCCCO)C(=O)[C@@H]4[C@@H]12 (some centres undefined) | -1.21
CO[C@H]1O[C@H](CO)[C@@H](OC(=O)Nc2ccccc2-c2ccccc2)[C@H](OC(=O)Nc2ccccc2-c2ccccc2)[C@H]1OC(=O)Nc1ccccc1-c1ccccc1 | 0.618
O=c1cccc(-c2cccc3ccccc23)o1 | -1.06
C=C(CCCC)C(=O)CC[C@H](OC(=O)c1ccccc1-c1ccccc1C(=O)O)c1ccc(CO)o1 | -0.23
CCOC1=C2C(c3ccc(C)cc3)N(S(=O)(=O)c3ccc(C)cc3)CC2n2c(=O)n(-c3ccccc3)c(=O)n2C1 (centres undefined) | 0.0267
C=CCC(OC(C)=O)[C@@H]1[C@@H](N(Cc2ccc(-c3cccc(C(F)(F)F)c3)o2)C(=O)c2ccc(C)cc2)c2cc(OCCCO)ccc2N1C(=O)c1ccc2ccccc2n1 (some centres undefined) | -0.703
CC1CC/C=C\[C@H]2OC34C=CCN(c5ccc6ccccc6c5)C(=O)[C@H]3N(CCCCCO)C(=O)[C@@H]4C2C(=O)O1 (some centres undefined) | -0.382
C=C(COC)C(=O)CC[C@@H](OC(=O)c1ccccc1-c1ccccc1C(=O)O)c1ccc(CO)o1 | 0.477
COc1ccc(C#Cc2ccc3c(c2)[C@]2(C(=O)N3)[C@H](c3ccc(OCCO)cc3)N3[C@H](c4ccccc4)[C@H](c4ccccc4)OC(=O)[C@H]3[C@@H]2C(=O)Nc2nc3ccccc3s2)cc1 | 0.315
C=C(/C(=C/C[C@@H](OC(=O)c1ccncc1)c1ccc(CO)o1)c1cc(C(=O)OC)ccc1OC)C(C)C | 0.811

---

Overview of recorded composite z-score for various compounds
assay: compounds binding Alexa647 anti-His antibody – biochemical, small-molecule microarray, 635 nm fluorescence, artefact control for SMM control protein annotation, primary screen (AID 1128); details: higher = more signal;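 also: score merges feature fluorescence with signal-to-noise for each printed compound spot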

COMPOUND | composite z-score
CC(C)NC(=O)[C@@H]1c2ccccc2C(=O)N(C2CCCCC2)[C@H]1c1ccc(CO)cc1 | 2.71
C#C[C@H]1Oc2ccccc2S(=O)(=O)N2CCC[C@@H]12 | -0.233
COc1ccc([Si](C)(C)[C@H]2[C@H](CC(=O)N3CCC[C@H]3CO)O[C@@]3(C(=O)N(c4ccccc4)c4ccccc43)[C@@H]2C)cc1 | 0.318
CCCCCCCCCCC(O)C1C=CC2C(=O)N(c3ccccc3)C(=O)C2N1Nc1ccc([N+](=O)[O-])cc1 (centres undefined) | 0.774
COc1cc(NN2C(C(O)c3ccccc3)C=CC3C(=O)N(c4ccccc4)C(=O)C32)cc(OC)c1OC (centres undefined) | 1.67
[N-]=[N+]=NCc1ccccc1C[C@]1(C(=O)NCCN2CCOCC2)N=C(c2ccc(OCCCO)cc2)O[C@H]1c1ccccc1CN=[N+]=[N-] | 1.09
O=C1C2C=CC(C(O)C3CC=CCC3)N(n3cnnc3)C2C(=O)N1Cc1ccccc1 (centres undefined) | 0.794
CCCNC(=O)[C@@]1(C)c2ccccc2C(=O)N(C(C)C)[C@H]1c1ccc(CO)cc1 | -0.853
COCCOC(=O)N1C(=O)[C@@]2(c3cc(C#Cc4ccc(OC)cc4)ccc31)[C@H](c1ccc(O)cc1)N1[C@H](c3ccccc3)[C@H](c3ccccc3)OC(=O)[C@H]1[C@@H]2C(=O)N1CCN(c2ncccn2)CC1 | 1.23
COCCOC(=O)N1C(=O)[C@@]2(c3cc(C#CCCO)ccc31)[C@H](c1ccc(O)cc1)N1[C@H](c3ccccc3)[C@H](c3ccccc3)OC(=O)[C@H]1[C@@H]2C(=O)N1CCCCCCC1 | 2.4
CCOC(=O)C[C@H]1[C@H](OC(=O)c2cc3ccccc3oc2=O)[C@@H](NC(=O)c2ccc3ccccc3c2)c2cc(OCCCO)ccc2N1C(=O)c1ccccc1 | 0.138
COC(=O)[C@@]1(Cc2ccc(F)cc2)[C@H]2c3cc(C(=O)N(C)C)n(CCc4c[nH]c5ccc(OC)cc45)c3C[C@H]2CN1C(=O)c1ccccc1 | -0.0359
O=C1OCC=C[C@H]2OC34C=CCN(c5ccc6ccccc6c5)C(=O)[C@H]3N(CCO)C(=O)[C@@H]4[C@@H]12 (some centres undefined) | 0.0061
CCOC(=O)C[C@H]1[C@H](OC(=O)c2ccc(C(=O)c3ccccc3)cc2)[C@@H](NC(=O)c2ccc3ccccc3n2)c2cc(OCCCO)ccc2N1C(=O)c1ccc2ccccc2n1 | -0.0631
